Entries and their Dmax values follow.
biological target: IRAK4 (Homo sapiens); construct: endogenous in cells; host or cells: Karpas299; test: IRAK4 Degradation Assay (Karpas299, HTRF/TR-FRET); assay type: cell-based; conditions: Karpas-299 cells, 24 h treatment; maximum percentage of degradation; read-out: IRAK4 in Karpas-299 (24 h) Dmax (%)
Dear colleague, please return just the value in %, with no unit written.

Consider the worked cases shown below.
>  <COMPOUND>
N#Cc1cnn2c(C(=O)Nc3cc4cn([C@H]5CC[C@H](N6CCN(C(=O)C7CN(c8cc(F)c([C@H]9CCC(=O)NC9=O)c(F)c8)C7)CC6)CC5)nc4c4c3OC(F)(F)O4)ccc2c1 [Example 384]

>  <TEST_READOUT>
Dmax

>  <TEST_VALUE>
97

$$$$
>  <COMPOUND>
COc1cc2nn(C3CCN(C4CCN(C(=O)C5CN(c6ccc(N7CCC(=O)NC7=O)cc6)C5)CC4)CC3)cc2cc1NC(=O)c1cccc(C(F)(F)F)n1 [Example 44]

>  <TEST_READOUT>
Dmax

>  <TEST_VALUE>
99

$$$$

Entry C[C@@H]1CN([C@H]2C[C@H](c3cc(F)c([C@H]4CCC(=O)NC4=O)c(F)c3)C2)CCN1[C@H]1CC[C@H](n2cc3cc(NC(=O)c4ccc5cc(C#N)cnn45)c(C(C)(C)O)cc3n2)CC1 [Example 366] , Dmax reported as 98

Entry COC[C@H]1CN([C@H]2CC[C@H](n3cc4cc(NC(=O)c5ccc6cc(C#N)cnn56)c(C(C)(C)O)cc4n3)CC2)CCN1CCc1cc(F)c([C@H]2CCC(=O)NC2=O)c(F)c1 [Example 314] , Dmax reported as 98

Entry O=C1CCN(c2ccc(N3CC[C@@H](C(=O)N4CCN([C@H]5CC[C@H](n6cc(NC(=O)c7coc(-c8ccnc(NCC(F)(F)F)c8)n7)c(C(F)F)n6)CC5)CC4)C3)cc2)C(=O)N1 [Example 14] , Dmax reported as 70

###

Target: IRAK4 (Homo sapiens, UniProt Q9NWZ3)
Construct: endogenous in cells; host or cells: Karpas299
Sequence (Q9NWZ3 1-460): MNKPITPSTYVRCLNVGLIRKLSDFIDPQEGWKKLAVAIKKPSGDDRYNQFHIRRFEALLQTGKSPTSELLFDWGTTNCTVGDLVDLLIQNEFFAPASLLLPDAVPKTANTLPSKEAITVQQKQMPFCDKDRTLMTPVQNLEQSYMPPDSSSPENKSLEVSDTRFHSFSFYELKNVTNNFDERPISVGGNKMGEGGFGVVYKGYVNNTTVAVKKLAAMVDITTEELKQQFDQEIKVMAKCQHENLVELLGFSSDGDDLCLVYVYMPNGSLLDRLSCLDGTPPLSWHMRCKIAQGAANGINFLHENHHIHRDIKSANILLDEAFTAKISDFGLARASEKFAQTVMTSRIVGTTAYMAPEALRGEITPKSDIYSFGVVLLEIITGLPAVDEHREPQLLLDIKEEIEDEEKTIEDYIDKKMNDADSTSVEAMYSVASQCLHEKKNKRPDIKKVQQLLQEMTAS
Experiment: IRAK4 Degradation Assay with Human Serum (Karpas299, HTRF/TR-FRET)
Format: cell-based
Settings: Karpas-299 in human serum, 24 hrs treatment; read-out: IRAK4 degradtion with human serum assay Dmax (%)
TEST_READOUT: Dmax (%)
Dear colleague, please return just the value in %, with no unit written.

Consider the worked cases shown below.
>  <MOLECULE>
CC(C)(O)c1cc2nn([C@H]3CC[C@H](N4CCN(C(=O)N5CCN(c6ccc(C7CCC(=O)NC7=O)cc6)CC5)CC4)CC3)cc2cc1NC(=O)c1ccc2cc(C#N)cnn12 (some centres unmarked)

>  <QUANTITY_UNIT>
%

>  <Dmax>
95

$$$$
>  <MOLECULE>
CC(C)(O)c1cc2nn([C@H]3CC[C@H](N4CCN(CCNc5cc(F)c(C6CCC(=O)NC6=O)c(F)c5)CC4)CC3)cc2cc1NC(=O)c1ccc2cc(C#N)cnn12 (some centres unmarked)

>  <QUANTITY_UNIT>
%

>  <Dmax>
100

$$$$
>  <MOLECULE>
Cn1c(=O)n(C2CCC(=O)NC2=O)c2cccc(CCCN3CCN([C@H]4CC[C@H](n5cc6cc(NC(=O)c7ccc8cc(C#N)cnn78)c(C(C)(C)O)cc6n5)CC4)CC3)c21 (some centres unmarked)

>  <QUANTITY_UNIT>
%

>  <Dmax>
95

$$$$
>  <MOLECULE>
COc1cc(N2CC(C(=O)N3CCN([C@H]4CC[C@H](n5cc6cc(NC(=O)c7ccc8cc(C#N)cnn78)c(C(C)(C)O)cc6n5)CC4)CC3)C2)ccc1[C@H]1CCC(=O)NC1=O

>  <QUANTITY_UNIT>
%

>  <Dmax>
101

$$$$
>  <MOLECULE>
CC(C)(O)c1cc2nn([C@H]3CC[C@H](N4CCN(C5CN(c6cc(F)c([C@H]7CCC(=O)NC7=O)c(F)c6)C5)CC4)CC3)cc2cc1NC(=O)c1ccc2cc(C#N)cnn12

>  <QUANTITY_UNIT>
%

>  <Dmax>
100

$$$$
>  <MOLECULE>
CC(C)(O)c1cc2nn([C@H]3CC[C@H](N4CCN([C@H]5CCN(c6cc(F)c(C7CCC(=O)NC7=O)c(F)c6)C5)CC4)CC3)cc2cc1NC(=O)c1ccc2cc(C#N)cnn12 (some centres unmarked)

>  <QUANTITY_UNIT>
%

>  <Dmax>
99

$$$$

Entry COC[C@H]1CN([C@H]2CC[C@H](n3cc4cc(NC(=O)c5ccc6cc(C#N)cnn56)c(C(C)(C)O)cc4n3)CC2)CCN1C1CCN(c2cc(F)c([C@H]3CCC(=O)NC3=O)c(F)c2)CC1 , Dmax reported as 100

Entry CC(C)(O)c1cc2nn([C@H]3CC[C@H](N4CCN(C(=O)[C@@H]5CCN(c6cc(F)c(N7CCC(=O)NC7=O)c(F)c6)C5)CC4)CC3)cc2cc1NC(=O)c1ccc2cc(C#N)cnn12 , Dmax reported as 97

Entry CC(C)(O)c1cc2nn([C@H]3CC[C@H](N4CCN(CC5CN(c6cc(F)c([C@H]7CCC(=O)NC7=O)c(F)c6)C5)CC4)CC3)cc2cc1NC(=O)c1ccc2cc(C#N)cnn12 , Dmax reported as 99

Entry COC[C@H]1CN([C@H]2CC[C@H](n3cc4cc(NC(=O)c5ccc6cc(C#N)cnn56)c(C(C)(C)O)cc4n3)CC2)CCN1CC1CN(c2cc(F)c([C@H]3CCC(=O)NC3=O)c(F)c2)C1 , Dmax reported as 96

Entry CC(C)(O)c1cc2nn([C@H]3CC[C@H](N4CCN(C5CN(c6cc(F)c([C@H]7CCC(=O)NC7=O)c(F)c6)C5)CC4)CC3)cc2cc1NC(=O)c1coc2cccnc12 , Dmax reported as 94

Entry COC[C@@H]1CN([C@H]2CC[C@H](n3cc4cc(NC(=O)c5ccc6cc(C#N)cnn56)c(C(C)(C)O)cc4n3)CC2)CCN1C(=O)C1CN(c2cc(F)c([C@H]3CCC(=O)NC3=O)c(F)c2)C1 , Dmax reported as 101

Entry CC(C)(O)c1cc2nn([C@H]3CC[C@H](N4CCN([C@H]5C[C@@H](c6ccc(N[C@@H]7CCC(=O)NC7=O)cc6)C5)CC4)CC3)cc2cc1NC(=O)c1ccc2cc(C#N)cnn12 , Dmax reported as 101

Entry COc1cc(N2CC(C(=O)N3CCN([C@H]4CC[C@H](n5cc6cc(NC(=O)c7ccc8cc(C#N)cnn78)c(C(C)(C)O)cc6n5)CC4)CC3)C2)ccc1N1CCC(=O)NC1=O , Dmax reported as 94

Entry COc1cc2nn([C@H]3CC[C@H](N4CCN(C(=O)C5CN(c6cc(F)c([C@H]7CCC(=O)NC7=O)c(F)c6)C5)CC4)CC3)cc2cc1C(=O)Nc1cnn2cccnc12 , Dmax reported as 100

Entry CC(C)(O)c1cc2nn([C@H]3CC[C@H](CN4CCN(C5CCN(c6ccc7c(c6)C(=O)N(C6CCC(=O)NC6=O)C7=O)CC5)CC4)CC3)cc2cc1NC(=O)c1ccc2cc(C#N)cnn12 (some centres unmarked) , Dmax reported as 85

Entry COc1cc2nn([C@H]3CC[C@H](N4CCN(CC5CN(c6cc(F)c([C@H]7CCC(=O)NC7=O)c(F)c6)C5)CC4)CC3)cc2cc1C(=O)Nc1cnc2cccnn12 , Dmax reported as 96

Entry CC(C)(O)c1cc2nn(C34CC(N5CCN(C(=O)C6CN(c7cc(F)c([C@H]8CCC(=O)NC8=O)c(F)c7)C6)CC5)(C3)C4)cc2cc1NC(=O)c1ccc2cc(C#N)cnn12 , Dmax reported as 99

Entry C[C@H]1CN([C@H]2CC[C@H](n3cc4cc(NC(=O)c5ccc6cc(C#N)cnn56)c(C(C)(C)O)cc4n3)CC2)CCN1C(=O)C1CN(c2cc(F)c(N3CCC(=O)NC3=O)c(F)c2)C1 , Dmax reported as 99

Entry C[C@H]1CN([C@H]2CC[C@H](n3cc4cc(NC(=O)c5ccc6cc(C#N)cnn56)c(C(C)(C)O)cc4n3)CC2)CCN1C(=O)C1CN(c2cc(F)c([C@H]3CCC(=O)NC3=O)c(F)c2)C1 , Dmax reported as 99
